Assay: self-splicing fitness, log relative to wild type (ln ratio); higher = more splicing; Tetrahymena group I intron in knt gene, E. coli kanamycin selection, DiMSum; sequences stand for … in CUCUCU…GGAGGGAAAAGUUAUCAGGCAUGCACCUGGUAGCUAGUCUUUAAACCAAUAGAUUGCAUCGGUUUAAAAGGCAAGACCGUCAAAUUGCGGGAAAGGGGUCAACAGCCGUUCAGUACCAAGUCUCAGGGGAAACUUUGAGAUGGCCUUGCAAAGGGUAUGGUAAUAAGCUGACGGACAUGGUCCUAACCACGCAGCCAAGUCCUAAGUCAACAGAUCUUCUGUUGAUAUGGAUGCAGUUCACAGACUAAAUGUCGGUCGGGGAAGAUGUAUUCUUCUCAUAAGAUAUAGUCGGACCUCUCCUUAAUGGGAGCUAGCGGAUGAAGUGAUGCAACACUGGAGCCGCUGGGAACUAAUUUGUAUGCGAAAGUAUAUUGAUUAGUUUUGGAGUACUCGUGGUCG;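 also: selection with 25 µg/mL kanamycin versus none on LB agar overnight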
Details: 30 °C
Measured self-splicing fitness (ln), listed per entry for reference.
Form: value (number only, do not type unit).

Consider the following illustrative entries.
Chain Sequence: CUUGAGCAAUAUUACGGGCG
Value Type: self-splicing fitness (ln)
Assay Result: -2.02

Chain Sequence: AACGAGCAAUAUUACGUUUG
Value Type: self-splicing fitness (ln)
Assay Result: -3.6

Chain Sequence: GGUAAGCAAUAUUACGUUAC
Value Type: self-splicing fitness (ln)
Assay Result: -3.08

Chain Sequence: CCAUAGCAAUAUUACGGAUG
Value Type: self-splicing fitness (ln)
Assay Result: -2.42

Chain Sequence: AGGGAGCAAUAUUACGGAGC
Value Type: self-splicing fitness (ln)
Assay Result: -2.84

For CGCCAGCAAUAUUACGAGUA , what is its reported self-splicing fitness (ln)?
-2.79

What value of measured self-splicing fitness (ln) is listed for CGACAGCAAUAUUACGGUAA ?
-1.81

# lookup: self-splicing fitness (ln) of AUGGAGCAAUAUUACGACCG
-3.83

What does the record list as self-splicing fitness (ln) for CAAGAGCAAUAUUACGGGAU ?
-2.97

Recorded self-splicing fitness (ln) of GCAUAGCAAUAUUACGAAGA , please.
-2

# lookup: self-splicing fitness (ln) of GACUAGCAAUAUUACGGCGG
-3.72

Which self-splicing fitness (ln) reading was recorded for the sequence UAUCAGCAAUAUUACGGUCG ?
-0.0229

GET /values?readout=self-splicing fitness (ln)&item= UUUUAGCAAUAUUACGGAGU
-2.29

Look at this sequence and give its reported self-splicing fitness (ln). GCUAAGCAAUAUUACGCGGC
-0.424

Requested field: self-splicing fitness (ln). Item: UGAUAGCAAUAUUACGGGCA
-0.911

What self-splicing fitness (ln) value was documented for this sequence, UAUCAGCAAUAUUACGGAUC ?
-0.475

###

Assay: self-splicing fitness, log relative to wild type (ln ratio); higher = more splicing; Tetrahymena group I intron in knt gene, E. coli kanamycin selection, DiMSum; sequences stand for … in CUCUCU…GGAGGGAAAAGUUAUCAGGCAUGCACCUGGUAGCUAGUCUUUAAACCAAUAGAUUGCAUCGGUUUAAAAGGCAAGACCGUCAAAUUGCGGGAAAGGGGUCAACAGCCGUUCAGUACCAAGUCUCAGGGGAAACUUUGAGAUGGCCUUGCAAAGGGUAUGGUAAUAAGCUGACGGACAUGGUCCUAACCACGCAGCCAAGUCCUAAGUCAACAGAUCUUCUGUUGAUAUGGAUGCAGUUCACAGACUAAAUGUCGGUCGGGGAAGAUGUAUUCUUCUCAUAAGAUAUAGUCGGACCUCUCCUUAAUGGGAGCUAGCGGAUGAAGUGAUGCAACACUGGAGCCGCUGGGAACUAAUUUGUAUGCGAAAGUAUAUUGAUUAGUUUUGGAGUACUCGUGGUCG
Settings: 30 °C
Assign class by self-splicing fitness (ln): not lower than -2 means True; lower than -2 means False.

Chain Sequence: UUCUAGCAAUAUUACGUGAU
Label Class: True

Chain Sequence: CAGUAGCAAUAUUACGAUAU
Label Class: False

Chain Sequence: AAAGAGCAAUAUUACGAGGU
Label Class: False

Chain Sequence: GUAAAGCAAUAUUACGUAGA
Label Class: False

Chain Sequence: CAGCAGCAAUAUUACGGCCU
Label Class: True

Chain Sequence: UCGCAGCAAUAUUACGUAUG
Label Class: True

Chain Sequence: CAUAAGCAAUAUUACGUAGG
Label Class: True

Chain Sequence: AAGCAGCAAUAUUACGUUAG
Label Class: False

Chain Sequence: GUUUAGCAAUAUUACGCUGA
Label Class: False

Chain Sequence: CGCUAGCAAUAUUACGCGGG
Label Class: False

self-splicing fitness (ln) >= -2 for AUUUAGCAAUAUUACGUUCC ?
True

Identify whether the reported self-splicing fitness (ln) of the following sequence is -2 or greater: GUAUAGCAAUAUUACGUGAU
False

Determine whether this sequence has self-splicing fitness (ln) no lower than -2: AGUAAGCAAUAUUACGUAUA
False

Dear colleague, could you confirm whether GACCAGCAAUAUUACGAUGU has self-splicing fitness (ln) at or above -2?
True

Given the entry GAGUAGCAAUAUUACGAGGU , answer whether its self-splicing fitness (ln) meets or surpasses -2.
False

Evaluate ACAGAGCAAUAUUACGGGCA : self-splicing fitness (ln) at minimum -2?
False
